molecular target: FGFR4 (Homo sapiens (Human), UniProt P22455); assay: FGFR Enzymatic Assay (peptide phosphorylation, FRET), FGFR4; assay type: biochemical; details: ratio of IC50 data showing FGFR4 selectivity; pre-incubated for 5 to 10 minutes
Sequence (P22455 22-802): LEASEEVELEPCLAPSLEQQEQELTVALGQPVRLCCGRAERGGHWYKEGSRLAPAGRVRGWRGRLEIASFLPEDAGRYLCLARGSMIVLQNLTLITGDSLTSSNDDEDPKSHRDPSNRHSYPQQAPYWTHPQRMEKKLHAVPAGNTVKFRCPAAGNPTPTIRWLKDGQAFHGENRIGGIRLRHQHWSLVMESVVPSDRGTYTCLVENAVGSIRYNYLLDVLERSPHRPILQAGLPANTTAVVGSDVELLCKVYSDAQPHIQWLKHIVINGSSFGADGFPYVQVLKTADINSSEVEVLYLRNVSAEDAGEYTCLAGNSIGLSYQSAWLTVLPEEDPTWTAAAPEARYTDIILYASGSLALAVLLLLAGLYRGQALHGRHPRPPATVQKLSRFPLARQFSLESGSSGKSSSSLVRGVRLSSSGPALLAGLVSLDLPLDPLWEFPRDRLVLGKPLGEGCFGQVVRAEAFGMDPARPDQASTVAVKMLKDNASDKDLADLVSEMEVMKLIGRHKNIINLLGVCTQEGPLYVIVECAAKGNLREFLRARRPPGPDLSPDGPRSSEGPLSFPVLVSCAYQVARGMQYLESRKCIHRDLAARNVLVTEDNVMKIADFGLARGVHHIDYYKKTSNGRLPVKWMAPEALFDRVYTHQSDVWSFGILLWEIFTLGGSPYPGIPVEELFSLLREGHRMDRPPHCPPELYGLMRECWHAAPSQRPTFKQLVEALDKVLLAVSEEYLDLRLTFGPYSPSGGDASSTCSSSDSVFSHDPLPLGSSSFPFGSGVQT
Each entry below lists one item and its recorded FGFR3/FGFR4 value.

{"columns": ["Smiles Code", "Measurement Target", "FGFR3/FGFR4"],
 "data": [
  ["COc1cc(OC)c(F)c(N2Cc3cnc(-c4cncc(-n5ccnc5)c4)cc3C3(CC3)C2=O)c1F", "FGFR4 (Homo sapiens (Human), UniProt P22455)", ">20"],
  ["COc1cc(OC)c(F)c(N2Cc3cnc(-c4cc(N)c(F)cc4C)cc3C3(CC3)C2=O)c1F", "FGFR4 (Homo sapiens (Human), UniProt P22455)", ">10"],
  ["COc1cc(OC)c(F)c(N2Cc3cnc(-c4cc(N)ccc4C#N)cc3C3(CC3)C2=O)c1F", "FGFR4 (Homo sapiens (Human), UniProt P22455)", ">25"]
]}

**Query** Missing value: FGFR3/FGFR4, FGFR4 (Homo sapiens (Human), UniProt P22455), entry "COc1cc(OC)c(F)c(N2Cc3cnc(-c4cncc(F)c4)cc3C3(CC3)C2=O)c1F" . Fill in?
**Result** >4

**Query** Missing value: FGFR3/FGFR4, FGFR4 (Homo sapiens (Human), UniProt P22455), entry "COc1cncc(-c2cc3c(cn2)CN(c2c(F)c(OC)cc(OC)c2F)C(=O)C32CC2)c1" . Fill in?
**Result** >10

**Query** Missing value: FGFR3/FGFR4, FGFR4 (Homo sapiens (Human), UniProt P22455), entry "COc1cc(OC)c(F)c(N2Cc3cnc(-c4cncc(CN5CCOCC5)c4)cc3C3(CC3)C2=O)c1F" . Fill in?
**Result** >10

**Query** Missing value: FGFR3/FGFR4, FGFR4 (Homo sapiens (Human), UniProt P22455), entry "COc1cc(OC)c(F)c(N2Cc3cnc(-c4cc(N)ccc4C)cc3C3(CC3)C2=O)c1F" . Fill in?
**Result** >50

**Query** Missing value: FGFR3/FGFR4, FGFR4 (Homo sapiens (Human), UniProt P22455), entry "COc1cc(OC)c(F)c(N2Cc3cnc(-c4cncc(C(=O)N5CCOCC5)c4)cc3C3(CC3)C2=O)c1F" . Fill in?
**Result** >10

Source: patent US10251892B2
